Values were extracted from patent US12491181B2.

- experiment: Solubility Test for Nimodipine in Oil Phase
- Format: physicochemical
- measurement-conditions: soybean oil:medium-chain oil (4:6), oil or lipid, normal temperature; read-out: Solubility, Soybean Oil:Medium-chain Oil (4:6)
observation-type: solubility (mg/mL)
Report only the number, with the unit mg/mL understood.

[ask] Look up solubility: COCCOC(=O)C1=C(C)NC(C)=C(C(=O)OC(C)C)C1c1cccc([N+](=O)[O-])c1 (stereo not shown)
[reply] 11
